Quick list: Postemergence herbicidal rating GLXMA per entry.
- Tested on: GLXMA, Soybean, Glycine max, (L.) Merr.
- experiment_notes: Postemergence herbicidal evaluation (Example 147)
- Assay type: in vivo
- condition_parameters: rate 0.032 kg/ha, rating scale 0-9, two to three weeks after treatment
Response field accepts a number only; no unit should be typed.

See these solved cases before continuing.
compound	Postemergence herbicidal rating GLXMA
Cn1c(C(F)(F)F)cc(=O)n(-c2cc(C(=O)NS(=O)(=O)NCc3cccs3)c(Cl)cc2F)c1=O	7.5
CN(Cc1ccccc1)S(=O)(=O)NC(=O)c1cc(-n2c(=O)cc(C(F)(F)F)n(C)c2=O)c(F)cc1Cl	8.5

Ask: What value of measured Postemergence herbicidal rating GLXMA is listed for `CNS(=O)(=O)NC(=O)c1cc(-n2c(=O)cc(C(F)(F)F)n(C)c2=O)c(F)cc1Cl` ?
Result: 8.5

Ask: What value of measured Postemergence herbicidal rating GLXMA is listed for CCC(C)N(C)S(=O)(=O)NC(=O)c1cc(-n2c(=O)cc(C(F)(F)F)n(C)c2=O)c(F)cc1Cl (centres unmarked) ?
Result: 8.0

Ask: What value of measured Postemergence herbicidal rating GLXMA is listed for `CC(C)N(C)S(=O)(=O)NC(=O)c1cc(-n2c(=O)cc(C(F)(F)F)n(N)c2=O)c(F)cc1Cl` ?
Result: 7.5
